- Test system: PLC/PRF/5 hepatoma cells
- Protocol Details: Cytostatic assay, PLC/PRF/5
- Type: cell-based
- Condition Description: Homo sapiens, Table 4
Property: IC50

Smiles Structure: N#Cc1cc(CCc2ccccc2)sc1N
Recorded Result: 41 µM

I need IC50 for every entry listed below, if you could help.
1. COC(=O)c1cc(CCc2cc(OC)ccc2OC)sc1N
2. COC(=O)c1cc(CCc2ccccc2)sc1N
3. CCOC(=O)c1cc(-c2ccc(OC)cc2)sc1N
4. CCOC(=O)c1c(N)sc(CCc2cc(OC)ccc2OC)c1C(=O)OCC
5. COC(=O)c1cc(CCc2ccccc2OC)sc1N
6. COC(=O)c1cc(-c2ccccc2OC)sc1N

1: 1.3 µM; 2: 44 µM; 3: > 100 µM; 4: 25 µM; 5: 18 µM; 6: 36 µM

I need IC50 for every entry listed below, if you could help.
1. COC(=O)c1cc(CCc2cccnc2)sc1N
2. CCOC(=O)c1cc(CCc2ccccc2OC)sc1N
3. CCOC(=O)c1c(N)sc(CCc2ccc(OC)cc2)c1C(=O)OCC
4. COC(=O)c1cc(-c2cc(OC)ccc2OC)sc1N
5. COc1ccc(OC)c(CCc2cc(C#N)c(N)s2)c1
6. CCOC(=O)c1cc(CCc2cc(OC)ccc2OC)sc1N
7. CCOC(=O)c1cc(C#Cc2ccc(OC)cc2)sc1N

1. > 100 µM
2. 39 µM
3. 75 µM
4. 26 µM
5. 0.041 µM
6. 0.26 µM
7. 41 µM

I need IC50 for every entry listed below, if you could help.
1. COC(=O)c1c(N)sc(CCc2cc(OC)ccc2OC)c1C
2. COc1ccccc1CCc1cc(C#N)c(N)s1

36 µM
6.7 µM

I need IC50 for every entry listed below, if you could help.
1. CCOC(=O)c1cc(-c2ccccc2OC)sc1N
2. COC(=O)c1cc(CCc2ccc(OC)cc2C)sc1N
3. COc1ccc(-c2cc(C#N)c(N)s2)cc1
4. CCOC(=O)c1cc(CCc2ccc(OC)cc2)sc1N
5. COc1ccc(CCc2cc(C#N)c(N)s2)cc1

1. 21 µM
2. 62 µM
3. 49 µM
4. 24 µM
5. 37 µM

I need IC50 for every entry listed below, if you could help.
1. COC(=O)c1cc(-c2ccc(OC)cc2)sc1N
2. COC(=O)c1cc(CCc2ccsc2)sc1N
3. COC(=O)c1cc(CCc2ccccn2)sc1N

1: 42 µM; 2: 28 µM; 3: > 100 µM
